Reference source: the Human Domainome abundance scans (Beltran et al. 2025)

B1: Retinoic acid receptor RXR-alpha, residues 132 to 208; numbered along this chain, P19793 (parent)
chain: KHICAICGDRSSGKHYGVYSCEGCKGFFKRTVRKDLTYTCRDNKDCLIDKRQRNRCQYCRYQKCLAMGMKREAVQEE

# Variants of: B1
# test: abundance fitness (aPCA) (normalised: wild type 0, dead -1); higher = more abundant; growth selection in yeast, the domain comes from the species named
# experimental-parameters: Homo sapiens
quantity-kind: abundance fitness

changes=G23F result=-0.424
changes=A5Q result=0.036
changes=L36H result=0.014
changes=L47I result=-0.002
changes=Y19K result=-0.032
changes=S12P result=0.062
changes=G26E result=-0.043
changes=C46D result=-0.035
changes=R33S result=-0.074
changes=C21M result=-0.827
changes=T39G result=0.045
